Hi there, I'd appreciate the recorded Maximum molar extinction coefficient UVB for every entry that follows.
experiment: Spectral characteristics: molar extinction coefficient and specific absorbance (UV spectrophotometry in ethyl acetate); format: physicochemical; details: 10 μg/ml, UVB band
Answers are plain numbers, in M⁻¹ cm⁻¹.

## Input // query Maximum molar extinction coefficient UVB value for entry c1ccc(-c2nnc(-c3cccc(-c4nnc(-c5ccccc5)c(-c5ccccc5)n4)c3)nc2-c2ccccc2)cc1 [WP76]
## Output 54000

## Input // query Maximum molar extinction coefficient UVB value for entry CC(C)(C)c1ccc(-c2nnc(-c3ccc(-c4nnc(-c5ccc(C(C)(C)C)cc5)c(-c5ccc(C(C)(C)C)cc5)n4)cc3)nc2-c2ccc(C(C)(C)C)cc2)cc1 [WP104]
## Output 90000

I would be grateful if you could provide Maximum molar extinction coefficient UVB for each of the following entries.
1. CCCCCCCCCCCCc1ccc(-c2nnc(-c3ccc(-c4nnc(-c5ccc(CCCCCCCCCCCC)cc5)c(-c5ccc(CCCCCCCCCCCC)cc5)n4)cc3)nc2-c2ccc(CCCCCCCCCCCC)cc2)cc1 [WP107]
2. CC(C)(C)CC(C)(C)c1cc(Cc2cc(C(C)(C)CC(C)(C)C)cc(-n3nc4ccccc4n3)c2O)c(O)c(-n2nc3ccccc3n2)c1 [Tinosorb M ®, reference compound]
3. Oc1ccc(-c2nnc(-c3ccc(-c4nnc(-c5ccc(O)cc5)c(-c5ccc(O)cc5)n4)cc3)nc2-c2ccc(O)cc2)cc1 [WP35]
4. CCCCC(CC)COC(=O)C=Cc1ccc(OC)cc1 (stereo not shown) [Parsol MCX ®, reference compound]
5. CCCCC(CC)COc1ccc(-c2nc(-c3ccc(OC)cc3)nc(-c3ccc(OCC(CC)CCCC)cc3O)n2)c(O)c1 (stereo not shown) [Tinosorb S ®, reference compound]

## Output
92000
36600
29600
24600
41750

---

experiment: Spectral distribution in UVA and UVB, 290 nm to 400 nm; type: physicochemical; conditions: range from 290 nm to 400 nm
Reported Property: Absorption peaks (nm)
Numbers only, in nm.

Solved entries:
## Input // query Absorption peaks value for entry c1ccc(-c2nnc(-c3cccc(-c4nnc(-c5ccccc5)c(-c5ccccc5)n4)c3)nc2-c2ccccc2)cc1
## Output 290

## Input // query Absorption peaks value for entry Clc1ccc(-c2nnc(-c3ccc(-c4nnc(-c5ccc(Cl)cc5)c(-c5ccc(Cl)cc5)n4)cc3)nc2-c2ccc(Cl)cc2)cc1
## Output 300

## Input // query Absorption peaks value for entry Brc1ccc(-c2nnc(-c3ccc(-c4nnc(-c5ccc(Br)cc5)c(-c5ccc(Br)cc5)n4)cc3)nc2-c2ccc(Br)cc2)cc1
## Output 330

## Input // query Absorption peaks value for entry Oc1ccc(-c2nnc(-c3ccc(-c4nnc(-c5ccc(O)cc5)c(-c5ccc(O)cc5)n4)cc3)nc2-c2ccc(O)cc2)cc1
## Output 355

## Input // query Absorption peaks value for entry COc1ccc(C(=O)CC(=O)c2ccc(C(C)(C)C)cc2)cc1 [Parsol 1789 ®, reference compound]
## Output 360

I would be grateful if you could provide Absorption peaks for each of the following entries.
1. c1ccc(-c2nnc(-c3ccc(-c4ccc(-c5nnc(-c6ccccc6)c(-c6ccccc6)n5)cc4)cc3)nc2-c2ccccc2)cc1
2. Fc1ccc(-c2nnc(-c3ccc(-c4nnc(-c5ccc(F)cc5)c(-c5ccc(F)cc5)n4)cc3)nc2-c2ccc(F)cc2)cc1

## Output
330
330
